assay: Antiproliferative activity against human L02 cells assessed as cell growth inhibition at 0.1 uM incubated for 72 hrs by SRB assay; type: toxicity, cell-based

smiles_text: CC(=O)OC(C)(C)/C=C/C(=O)[C@](C)(O)[C@H]1[C@H](O)C[C@@]2(C)[C@@H]3CC=C4[C@@H](C[C@H](OC(=O)/C=C/c5ccccc5)C(=O)C4(C)C)[C@]3(C)C(=O)C[C@]12C
inhibition at 72 h, 0.1 µM [%]: 1.72
//
smiles_text: CC(=O)OC(C)(C)/C=C/C(=O)[C@](C)(O)[C@H]1[C@H](OC(=O)/C=C/c2ccccc2)C[C@@]2(C)[C@@H]3CC=C4[C@@H](C[C@H](OC(=O)/C=C/c5ccccc5)C(=O)C4(C)C)[C@]3(C)C(=O)C[C@]12C
inhibition at 72 h, 0.1 µM [%]: 0.97
//
smiles_text: CC(=O)OC(C)(C)/C=C/C(=O)[C@](C)(O)[C@H]1[C@H](O)C[C@@]2(C)[C@@H]3CC=C4[C@@H](C[C@H](OC(=O)c5cccs5)C(=O)C4(C)C)[C@]3(C)C(=O)C[C@]12C
inhibition at 72 h, 0.1 µM [%]: 4.77
//
smiles_text: COc1ccc(/C=C/C(=O)O[C@H]2C[C@@H]3C(=CC[C@@H]4[C@@]3(C)C(=O)C[C@]3(C)[C@@H]([C@@](C)(O)C(=O)/C=C/C(C)(C)OC(C)=O)[C@H](OC(=O)/C=C/c5ccc(OC)cc5)C[C@@]43C)C(C)(C)C2=O)cc1
inhibition at 72 h, 0.1 µM [%]: -2.33

----------
test: Antiproliferative activity against human L02 cells assessed as cell growth inhibition at 0.1 uM incubated for 72 hrs by SRB assay; type: toxicity, cell-based
observable: inhibition at 72 h, 0.1 µM

smiles_text: CC(=O)OC(C)(C)/C=C/C(=O)[C@](C)(O)[C@H]1[C@H](O)C[C@@]2(C)[C@@H]3CC=C4[C@@H](C[C@H](OC(=O)c5cn(-c6ccc(C)cc6)nn5)C(=O)C4(C)C)[C@]3(C)C(=O)C[C@]12C
result: 3.68%

smiles_text: CC(=O)OC(C)(C)/C=C/C(=O)[C@](C)(O)[C@H]1[C@H](OC(=O)/C=C/c2ccc(F)cc2)C[C@@]2(C)[C@@H]3CC=C4[C@@H](C[C@H](O)C(=O)C4(C)C)[C@]3(C)C(=O)C[C@]12C
result: 7.68%

smiles_text: CC(=O)OC(C)(C)/C=C/C(=O)[C@](C)(O)[C@H]1[C@H](OC(=O)/C=C/c2ccccc2)C[C@@]2(C)[C@@H]3CC=C4[C@@H](C[C@H](O)C(=O)C4(C)C)[C@]3(C)C(=O)C[C@]12C
result: 1.86%

smiles_text: CC(=O)OC(C)(C)/C=C/C(=O)[C@](C)(O)[C@H]1[C@H](O)C[C@@]2(C)[C@@H]3CC=C4[C@@H](C[C@H](OC(=O)c5cccnc5)C(=O)C4(C)C)[C@]3(C)C(=O)C[C@]12C
result: 10.1%

smiles_text: COc1ccc(/C=C/C(=O)O[C@@H]2C[C@@]3(C)[C@@H]4CC=C5[C@@H](C[C@H](O)C(=O)C5(C)C)[C@]4(C)C(=O)C[C@]3(C)[C@H]2[C@@](C)(O)C(=O)/C=C/C(C)(C)OC(C)=O)cc1
result: -3.17%

smiles_text: CC(=O)OC(C)(C)/C=C/C(=O)[C@](C)(O)[C@H]1[C@H](O)C[C@@]2(C)[C@@H]3CC=C4[C@@H](C[C@H](O)C(=O)C4(C)C)[C@]3(C)C(=O)C[C@]12C
result: 70.6%

smiles_text: COc1cc(-n2cnn(CC(=O)O[C@H]3C[C@@H]4C(=CC[C@@H]5[C@@]4(C)C(=O)C[C@]4(C)[C@@H]([C@@](C)(O)C(=O)/C=C/C(C)(C)OC(C)=O)[C@H](O)C[C@@]54C)C(C)(C)C3=O)c2=O)cc(OC)c1OC
result: 66%

smiles_text: COc1ccc(-n2cc(C(=O)O[C@H]3C[C@@H]4C(=CC[C@@H]5[C@@]4(C)C(=O)C[C@]4(C)[C@@H]([C@@](C)(O)C(=O)/C=C/C(C)(C)OC(C)=O)[C@H](O)C[C@@]54C)C(C)(C)C3=O)nn2)cc1
result: 12.6%

smiles_text: CC(=O)OC(C)(C)/C=C/C(=O)[C@](C)(O)[C@H]1[C@H](O)C[C@@]2(C)[C@@H]3CC=C4[C@@H](C[C@H](OC(=O)c5ccco5)C(=O)C4(C)C)[C@]3(C)C(=O)C[C@]12C
result: 20%

smiles_text: CC(=O)OC(C)(C)/C=C/C(=O)[C@](C)(O)[C@H]1[C@H](OC(=O)/C=C/c2ccc(F)cc2)C[C@@]2(C)[C@@H]3CC=C4[C@@H](C[C@H](OC(=O)/C=C/c5ccc(F)cc5)C(=O)C4(C)C)[C@]3(C)C(=O)C[C@]12C
result: -13.1%

smiles_text: CC(=O)OC(C)(C)/C=C/C(=O)[C@](C)(O)[C@H]1[C@H](OC(=O)/C=C/c2ccc(C)cc2)C[C@@]2(C)[C@@H]3CC=C4[C@@H](C[C@H](O)C(=O)C4(C)C)[C@]3(C)C(=O)C[C@]12C
result: 3.35%

smiles_text: CC(=O)OC(C)(C)/C=C/C(=O)[C@](C)(O)[C@H]1[C@H](O)C[C@@]2(C)[C@@H]3CC=C4[C@@H](C[C@H](OC(=O)c5ccccn5)C(=O)C4(C)C)[C@]3(C)C(=O)C[C@]12C
result: 44.8%

smiles_text: CC(=O)OC(C)(C)/C=C/C(=O)[C@](C)(O)[C@H]1[C@H](O)C[C@@]2(C)[C@@H]3CC=C4[C@@H](C[C@H](OC(=O)c5cn(-c6ccc(F)cc6)nn5)C(=O)C4(C)C)[C@]3(C)C(=O)C[C@]12C
result: 36.4%

smiles_text: CC(=O)OC(C)(C)/C=C/C(=O)[C@](C)(O)[C@H]1[C@H](O)C[C@@]2(C)[C@@H]3CC=C4[C@@H](C[C@H](OC(=O)c5cn(-c6ccc(Cl)cc6)nn5)C(=O)C4(C)C)[C@]3(C)C(=O)C[C@]12C
result: 12.5%

smiles_text: CC(=O)OC(C)(C)/C=C/C(=O)[C@](C)(O)[C@H]1[C@H](O)C[C@@]2(C)[C@@H]3CC=C4[C@@H](C[C@H](OC(=O)Cn5ncn(-c6ccc(Br)cc6)c5=O)C(=O)C4(C)C)[C@]3(C)C(=O)C[C@]12C
result: 54.1%

smiles_text: CC(=O)OC(C)(C)/C=C/C(=O)[C@](C)(O)[C@H]1[C@H](O)C[C@@]2(C)[C@@H]3CC=C4[C@@H](C[C@H](OC(=O)Cn5ncn(-c6ccccc6)c5=O)C(=O)C4(C)C)[C@]3(C)C(=O)C[C@]12C
result: 59.6%

smiles_text: CC(=O)OC(C)(C)/C=C/C(=O)[C@](C)(O)[C@H]1[C@H](O)C[C@@]2(C)[C@@H]3CC=C4[C@@H](C[C@H](OC(=O)c5cn(-c6ccc(Br)cc6)nn5)C(=O)C4(C)C)[C@]3(C)C(=O)C[C@]12C
result: 0.01%
